Assay: Lipophilicity, log P of the compound
Format: physicochemical
Settings: octanol/water
Kind request: treat 3 as inclusive, so logP at 3 or higher is yes (1), anything lower is no (0).

[[record]]
molecule = "O=C(NCCN1CCN(c2noc3ccccc23)CC1)c1ccc(F)cc1"
classification = "yes (1)"

[[record]]
molecule = "N#Cc1cccnc1N1CCN(CCNC(=O)c2ccc(F)cc2)CC1"
classification = "no (0)"

[[record]]
molecule = "O=C(NCCN1CCN(c2ccc(Cl)cn2)CC1)c1ccc(F)cc1"
classification = "yes (1)"

[[record]]
molecule = "COc1cccc(C(=O)NCCN2CCN(c3ccc(Cl)cn3)CC2)c1"
classification = "yes (1)"

[[record]]
molecule = "O=C(NCCN1CCN(c2ccc(Cl)cc2)CC1)c1ccc(F)cc1"
classification = "yes (1)"

[[record]]
molecule = "COc1cccc(C(=O)NCCN2CCN(c3ncccc3C#N)CC2)c1"
classification = "no (0)"

